- Tested on: hiPSC-derived neurons co-cultured with human primary astrocytes in 3D
- Assay name: Ca2+ transient oscillation assay (FDSS), 3D spheroids
- Assay type: cell-based
- Test conditions: 3.33 µM; 60 min

| Compound | Assayed system | Peak width - 3D Mean [% change from baseline] |
| --- | --- | --- |
| Nc1ccncc1 [4-AP, 4-Aminopyridine] | hiPSC-derived neurons co-cultured with human primary astrocytes in 3D | 35.1 |
| CC(NC(C)(C)C)C(=O)c1cccc(Cl)c1 (stereo not drawn) [Bupropion] | hiPSC-derived neurons co-cultured with human primary astrocytes in 3D | 9.0 |
| CC[C@@H]1C(=O)OC[C@@H]1Cc1cncn1C [Pilocarpine] | hiPSC-derived neurons co-cultured with human primary astrocytes in 3D | 10.2 |
| OC(c1cc(C(F)(F)F)nc2c(C(F)(F)F)cccc12)C1CCCCN1 (stereo not drawn) [Mefloquine] | hiPSC-derived neurons co-cultured with human primary astrocytes in 3D | 1.4 |
| CN1CCc2cc3c(cc2[C@H]1[C@@H]1OC(=O)c2c1ccc1c2OCO1)OCO3 [Bicuculline] | hiPSC-derived neurons co-cultured with human primary astrocytes in 3D | 2.7 |
| CC(=O)Nc1ccc(O)cc1 [Acetaminophen] | hiPSC-derived neurons co-cultured with human primary astrocytes in 3D | 5.9 |
| N[C@@H](CCC(=O)O)C(=O)O [Glutamate] | hiPSC-derived neurons co-cultured with human primary astrocytes in 3D | 8.6 |
| CCN(CC)CCCC(C)Nc1c2ccc(Cl)cc2nc2ccc(OC)cc12 (stereo not drawn) [Quinacrine, quinacrine] | hiPSC-derived neurons co-cultured with human primary astrocytes in 3D | 10.6 |
| CNCCCC12CCC(c3ccccc31)c1ccccc12 [Maprotiline] | hiPSC-derived neurons co-cultured with human primary astrocytes in 3D | −3.2 |
| CCn1cc(C(=O)O)c(=O)c2cc(F)c(N3CCNCC3)nc21 [Enoxacin] | hiPSC-derived neurons co-cultured with human primary astrocytes in 3D | 3.0 |
| Cc1ccc(Nc2nccc(N(C)c3ccc4c(C)n(C)nc4c3)n2)cc1S(N)(=O)=O [Pazopanib] | hiPSC-derived neurons co-cultured with human primary astrocytes in 3D | 4.1 |
| C=C(C)[C@H]1CN[C@H](C(=O)O)[C@H]1CC(=O)O [Kainic Acid] | hiPSC-derived neurons co-cultured with human primary astrocytes in 3D | 41.9 |

----------
Recorded activation at 3 µM, one value per entry.
- System: hiPSC-derived neurons co-cultured with human primary astrocytes in 2D
- Assay name: Ca2+ transient oscillation assay (FDSS), 2D co-culture
- Type: cell-based
- Test conditions: Homo sapiens, 1 h; 3 µM; 60 min; read-out: Peak width - 2D Mean

| Chemical string | activation at 3 µM (%) |
| --- | --- |
| NCCCC(=O)O | 8.5 |
| C[C@]12N[C@H](Cc3ccccc31)c1ccccc12 | -70 |
| CC1(C)S[C@@H]2[C@H](NC(=O)[C@H](N)c3ccc(O)cc3)C(=O)N2[C@H]1C(=O)O | 47.7 |
| Clc1ccc2c(c1)C(N1CCNCC1)=Nc1ccccc1O2 | -37.7 |
| CN(C)CCCN1c2ccccc2Sc2ccc(Cl)cc21 | -100 |

----------
- System: hiPSC-derived neurons co-cultured with human primary astrocytes in 3D
- Assay name: Ca2+ transient oscillation assay (FDSS), 3D spheroids
- Format: cell-based
- Test conditions: 3.33 µM; 60 min
Recorded Peak-to-peak interval - 3D Mean, one value per entry.

| Molecule | Assayed system | Measurement units | Peak-to-peak interval - 3D Mean |
| --- | --- | --- | --- |
| CCn1cc(C(=O)O)c(=O)c2cc(F)c(N3CCNCC3)nc21 | hiPSC-derived neurons co-cultured with human primary astrocytes in 3D | % change from baseline | −1.3 |
| CCN(CC)CCCC(C)Nc1c2ccc(Cl)cc2nc2ccc(OC)cc12 (centres unmarked) | hiPSC-derived neurons co-cultured with human primary astrocytes in 3D | % change from baseline | −5.5 |
| N[C@@H](CCC(=O)O)C(=O)O [Glutamate] | hiPSC-derived neurons co-cultured with human primary astrocytes in 3D | % change from baseline | 3.1 |
| Nc1ccncc1 | hiPSC-derived neurons co-cultured with human primary astrocytes in 3D | % change from baseline | −17.6 |
| Cc1ccc(Nc2nccc(N(C)c3ccc4c(C)n(C)nc4c3)n2)cc1S(N)(=O)=O | hiPSC-derived neurons co-cultured with human primary astrocytes in 3D | % change from baseline | −3.0 |

----------
- Tested on: hiPSC-derived neurons co-cultured with human primary astrocytes in 2D
- Assay name: Ca2+ transient oscillation assay (FDSS), 2D co-culture
- Type: cell-based
- Test conditions: Homo sapiens, 1 h; 33.33 µM; 60 min; read-out: Peak-to-peak interval - 2D Mean
Quantity: activation at 33.33 µM

| Compound | Quantity | Meas value |
| --- | --- | --- |
| CC(=O)OCC[N+](C)(C)C | activation at 33.33 µM | -25.8% |
| NC(=O)N1c2ccccc2C=Cc2ccccc21 [Carbamazepine] | activation at 33.33 µM | 45% |
| NCCc1c[nH]c2ccc(O)cc12 | activation at 33.33 µM | 36.4% |
| Cn1c(=O)c2[nH]cnc2n(C)c1=O | activation at 33.33 µM | -5.2% |
| O=C1NC(=O)C(c2ccccc2)(c2ccccc2)N1 | activation at 33.33 µM | 89% |
| CC(=O)Oc1ccccc1C(=O)O | activation at 33.33 µM | -0.5% |
| NS(=O)(=O)c1cc2c(cc1Cl)NC(C1CC3C=CC1C3)NS2(=O)=O (stereo not shown) [Cyclothiazide] | activation at 33.33 µM | 0.3% |

----------
- Tested on: hiPSC-derived neurons co-cultured with human primary astrocytes in 3D
- Assay name: Ca2+ transient oscillation assay (FDSS), 3D spheroids
- Assay type: cell-based
- Test conditions: 1 µM; 60 min
Quantity: Peak Number—3D Mean (% change from baseline)

| Molecule | Assayed system | Meas value |
| --- | --- | --- |
| CN(C)CCCN1c2ccccc2Sc2ccc(Cl)cc21 [Chlorpromazine] | hiPSC-derived neurons co-cultured with human primary astrocytes in 3D | 11.5 |
| Clc1ccc2c(c1)C(N1CCNCC1)=Nc1ccccc1O2 [Amoxapine] | hiPSC-derived neurons co-cultured with human primary astrocytes in 3D | −10.8 |
| NCCCC(=O)O [GABA, gamma-aminobutyric acid] | hiPSC-derived neurons co-cultured with human primary astrocytes in 3D | −0.6 |
| CN1CCN(C2=Nc3cc(Cl)ccc3Nc3ccccc32)CC1 [Clozapine] | hiPSC-derived neurons co-cultured with human primary astrocytes in 3D | −13.9 |
| CC1(C)S[C@@H]2[C@H](NC(=O)[C@H](N)c3ccc(O)cc3)C(=O)N2[C@H]1C(=O)O [Amoxicillin] | hiPSC-derived neurons co-cultured with human primary astrocytes in 3D | 9.3 |

----------
- Tested on: hiPSC-derived neurons co-cultured with human primary astrocytes in 2D
- Assay name: Ca2+ transient oscillation assay (FDSS), 2D co-culture
- Format: cell-based
- Test conditions: Homo sapiens, 1 h; 0.33 µM; 60 min; read-out: Peak Number—2D Mean
Quantity: activation at 0.33 µM (%)

| Chemical string | Meas value |
| --- | --- |
| CN(C)CCCN1c2ccccc2Sc2ccc(Cl)cc21 | -29.5 |
| CN1CCN(C2=Nc3cc(Cl)ccc3Nc3ccccc32)CC1 | -15 |
| NCCCC(=O)O | -4.4 |
| C[C@]12N[C@H](Cc3ccccc31)c1ccccc12 | -90.4 |
| CC1(C)S[C@@H]2[C@H](NC(=O)[C@H](N)c3ccc(O)cc3)C(=O)N2[C@H]1C(=O)O | 8.3 |
| Clc1ccc2c(c1)C(N1CCNCC1)=Nc1ccccc1O2 | 25.3 |

----------
Recorded Peak-to-peak interval - 3D Mean, one value per entry.
- Test system: hiPSC-derived neurons co-cultured with human primary astrocytes in 3D
- Assay name: Ca2+ transient oscillation assay (FDSS), 3D spheroids
- Format: cell-based
- Test conditions: 0.37 µM; 60 min

| Molecule | Peak-to-peak interval - 3D Mean |
| --- | --- |
| CN1CCc2cc3c(cc2[C@H]1[C@@H]1OC(=O)c2c1ccc1c2OCO1)OCO3 [Bicuculline] | 7.6 % change from baseline |
| Cc1ccc(Nc2nccc(N(C)c3ccc4c(C)n(C)nc4c3)n2)cc1S(N)(=O)=O [Pazopanib] | −2.0 % change from baseline |
| CC(NC(C)(C)C)C(=O)c1cccc(Cl)c1 (stereo not shown) [Bupropion] | 4.1 % change from baseline |
| CC[C@@H]1C(=O)OC[C@@H]1Cc1cncn1C [Pilocarpine] | −10.1 % change from baseline |

----------
- Test system: hiPSC-derived neurons co-cultured with human primary astrocytes in 2D
- Assay name: Ca2+ transient oscillation assay (FDSS), 2D co-culture
- Format: cell-based
- Test conditions: Homo sapiens, 1 h; 1.11 µM; 60 min; read-out: Peak Number—2D Mean
Recorded activation at 1.11 µM, one value per entry.

| Compound | Measurement units | activation at 1.11 µM |
| --- | --- | --- |
| CC(NC(C)(C)C)C(=O)c1cccc(Cl)c1 (stereo not drawn) | % | 6.6 |
| CCn1cc(C(=O)O)c(=O)c2cc(F)c(N3CCNCC3)nc21 | % | 2.3 |
| Cc1ccc(Nc2nccc(N(C)c3ccc4c(C)n(C)nc4c3)n2)cc1S(N)(=O)=O | % | 4.4 |
| CC[C@@H]1C(=O)OC[C@@H]1Cc1cncn1C | % | 8.3 |
| CC(=O)Nc1ccc(O)cc1 | % | -11.7 |
| Nc1ccncc1 | % | 70.3 |
| CCN(CC)CCCC(C)Nc1c2ccc(Cl)cc2nc2ccc(OC)cc12 (stereo not drawn) | % | -2.8 |
| CNCCCC12CCC(c3ccccc31)c1ccccc12 | % | 0.5 |
| OC(c1cc(C(F)(F)F)nc2c(C(F)(F)F)cccc12)C1CCCCN1 (stereo not drawn) | % | -30.8 |

Sourced from paper PMC10046961
